// data source = the supplement of paper PMC10567573

Recorded protein stability index values for a group of variants are listed next.
B1: DFFB (parent)
chain: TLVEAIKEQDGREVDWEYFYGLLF

# Variants of: B1
# run description: protein stability index of a GFP-peptide fusion (GPS, HEK-293T) (PSI 1-6); higher = more stable;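 further: lentivirally expressed fusions sorted by FACS into six bins by GFP to DsRed ratio, PSI derived from sequencing read proportions per bin multiplied by bin number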
# condition context: c terminus: a fixed tail appended
Give the figure only, with no unit attached.

Solved cases (2 shown):
record sequence | observation type | result
TLVEAIKEQDGREVDWKYFYGLLF [E17K] | protein stability index | 3.25
TLVEAIKEQDGRERDWEYFYGLLF [V14R] | protein stability index | 1.65

// protein stability index lookup, key: TLVEAIKEQDGREVDWERFYGLLF [Y18R]
2.2

Now the same for TLVEAEKEQDGREVDWEYFYGLLF [I6E]
2.58

Record: TLVEAIKEQDGREVDWEHFYGLLF [Y18H]
3.81

TLVEAIKEQDGREVDWEYFYHLLF [G21H] , same question.
2.37

Check TLVEAIKEQDGREVDWEYFYGLLY [F24Y] too.
2.31
